src = patent US8940510B2

Target Of Assay: glycolate oxidase (Spinacia oleracea, UniProt P05414)
Construct: expressed in transfected cells; host or cells: Pichia pastoris, single recombinant (NRRL Y-21001) or double recombinant, spray-dried and/or BAC-permeabilised whole cells
Sequence (P05414 whole entry): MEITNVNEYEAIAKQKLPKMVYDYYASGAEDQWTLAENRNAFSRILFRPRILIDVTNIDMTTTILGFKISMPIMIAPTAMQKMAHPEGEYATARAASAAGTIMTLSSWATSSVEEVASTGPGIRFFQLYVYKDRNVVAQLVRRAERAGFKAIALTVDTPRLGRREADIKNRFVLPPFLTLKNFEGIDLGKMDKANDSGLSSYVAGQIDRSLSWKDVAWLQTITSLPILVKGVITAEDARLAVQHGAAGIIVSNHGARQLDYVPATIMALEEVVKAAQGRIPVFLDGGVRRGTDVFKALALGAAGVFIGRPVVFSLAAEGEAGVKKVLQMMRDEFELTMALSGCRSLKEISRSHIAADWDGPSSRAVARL
Run Description: Glycolate oxidase (DCIP) assay on Pichia pastoris whole-cell biocatalyst
Format: biochemical, spinach
Condition: racemic substrate; spray-dried cells; lactic acid is 100%
Reported Metric: Relative GO activity, Spray-dried (%)
Please respond with the number in % and leave the unit unwritten.

-- ask Provide one value: measured Relative GO activity, Spray-dried of O=C(O)C(O)Cc1ccc(O)cc1 (stereo not shown) [p-Hydroxyphenyllactic acid]
-- reply 38

-- ask Provide measured Relative GO activity, Spray-dried value, entry: O=C(O)CO
-- reply 94

-- ask Entry CCCCCCCCC(O)C(=O)O (racemic) [2-Hydroxydecanoic acid] needs its Relative GO activity, Spray-dried filled in; supply it.
-- reply 49

-- ask Respond only with Relative GO activity, Spray-dried recorded for CCC(O)C(=O)O (racemic) [2-Hydroxybutyric acid]
-- reply 129

-- ask Specify reported Relative GO activity, Spray-dried for the molecule shown: CC(O)C(=O)O (racemic)
-- reply 100

-- ask Check the records and state Relative GO activity, Spray-dried for O=C(O)C(O)Cc1c[nH]c2ccccc12 (racemic)
-- reply 26

-- ask Fill in reported Relative GO activity, Spray-dried for this entry: O=C(O)C(O)Cc1ccccc1 (racemic)
-- reply 37

-- ask Tell me Relative GO activity, Spray-dried reported for O=C(O)C(O)c1ccccc1 (racemic)
-- reply 3

-- ask For the molecule O=C(O)C(O)CCl (racemic) , give its reported Relative GO activity, Spray-dried.
-- reply 121

-- ask Provide Relative GO activity, Spray-dried value for the following molecule: CC(C)C(O)C(=O)O (racemic) [2-Hydroxy-3-methylbutyric acid]
-- reply 2
